# STUDY TARGET: calmodulin dependent cAMP-PDE (Homo sapiens, UniProt P0DP23)
# MEASUREMENT NOTES: Antagonism of calmodulin dependent cAMP-PDE (inhibiting the activation of cyclic AMP phosphodiesterase by calmodulin)
# Format: biochemical
pIC50: −log10 of the molar value.
MEASURED QUANTITY: pIC50

>>> print(df.to_string())
                                   compound  measured_quantity   val
0  CC/C(=C(\c1ccccc1)c1ccc(OCCN(C)C)cc1)c1ccccc1 [Tamoxifen]              pIC50  5.17
